# Assay type: in vitro ADME, Rat
*1 amine or outer side, *2 acyl side, *3 side chain or, on linkers, in order; H or OH if unused. Where a SMILES comes first, the peptide text is derived from it. [ ]: non-standard residue; d: D form. X9 = C=CC(C)(C)n1cc(C[C@@H](C(=O)[*:2])N(C)[*:1])c2ccccc21; Ala(3R-Me,3-isobutenyl) = CC(C)=C[C@@H](C)[C@H](N)C(=O)O; NMeLeu(5-OH,4R) = CN[C@@H](C[C@@H](C)CO)C(=O)O; Phe(βR-OMe) = CO[C@H](c1ccccc1)[C@H](N)C(=O)O; NMeL = CN[C@@H](CC(C)C)C(=O)O
Measured attribute: Hepatocyte Stability Rat QH (%)
Just the number in %, nothing appended.

| Molecule | Hepatocyte Stability Rat QH (%) |
| --- | --- |
| C=CC(C)(C)n1cc(C[C@H]2C(=O)N(C)[C@@H](C[C@@H](C)CO)C(=O)N[C@@H](C)C(=O)N[C@@H]([C@H](OC)c3ccccc3)C(=O)N[C@@H](C(C)C)C(=O)N(C)[C@@H](CC(C)C)C(=O)N[C@@H]([C@H](C)C=C(C)C)C(=O)N2C)c2ccccc21 [Compound 23] (cyclo(A[Phe(βR-OMe)]V[NMeL][Ala(3R-Me,3-isobutenyl)][X9][NMeLeu(5-OH,4R)])) | 57.093 |
| COC(c1ccc(OCc2cn(CCOCCOCCOCCOCCn3cc(COc4ccc(C(OC)C5NC(=O)C(C)NC(=O)C(CC(C)CO)N(C)C(=O)C(Cc6cn(C)c7ccccc67)NC(=O)C(C(C)C)NC(=O)C(CC(C)C)N(C)C(=O)C(C(C)C)NC5=O)cc4)nn3)nn2)cc1)C1NC(=O)C(C)NC(=O)C(CC(C)CO)N(C)C(=O)C(Cc2cn(C)c3ccccc23)NC(=O)C(C(C)C)NC(=O)C(CC(C)C)N(C)C(=O)C(C(C)C)NC1=O (stereo not shown) | 6.192 |
| COC(c1ccc(OCc2cn(CCOCCOCCOCCOCCn3cc(COc4ccc(C(OC)C5NC(=O)C(C)NC(=O)C(CC(C)CO)N(C)C(=O)C(Cc6cn(C)c7ccccc67)N(C)C(=O)C(C(C)C)NC(=O)C(CC(C)C)N(C)C(=O)C(C(C)C)NC5=O)cc4)nn3)nn2)cc1)C1NC(=O)C(C)NC(=O)C(CC(C)CO)N(C)C(=O)C(Cc2cn(C)c3ccccc23)N(C)C(=O)C(C(C)C)NC(=O)C(CC(C)C)N(C)C(=O)C(C(C)C)NC1=O (stereo not shown) | 16.284 |

Turning now to a further record.
Consider the molecule shown here: `CO[C@H](c1ccccc1)[C@@H]1NC(=O)[C@H](C)NC(=O)[C@H](C[C@@H](C)CO)N(C)C(=O)[C@H](Cc2cn(CCCCn3cc(C[C@H]4C(=O)N(C)[C@@H](C[C@@H](C)CO)C(=O)N[C@@H](C)C(=O)N[C@@H]([C@H](OC)c5ccccc5)C(=O)N[C@@H](C(C)C)C(=O)N(C)[C@@H](CC(C)C)C(=O)N[C@@H](C(C)C)C(=O)N4C)c4ccccc43)c3ccccc23)N(C)C(=O)[C@H](C(C)C)NC(=O)[C@H](CC(C)C)N(C)C(=O)[C@H](C(C)C)NC1=O` What is its recorded Hepatocyte Stability Rat QH?
6.192

---

# Experiment: in vivo
# Assay type: in vivo, BALB/cAnNCrl mice
# Measurement context: male, BALB/cAnNCrl, mouse, in vivo, iv, 1.062 umol/kg, iv bolus, individual animals 1-3; read-out: Vss
*1 amine or outer side, *2 acyl side, *3 side chain or, on linkers, in order; H or OH if unused. Where a SMILES comes first, the peptide text is derived from it. [ ]: non-standard residue; d: D form. X1 = C#CCn1cc(C[C@H](N[*:1])C(=O)[*:2])c2ccccc21; NMeLeu(5-OH,4R) = CN[C@@H](C[C@@H](C)CO)C(=O)O; Phe(βR-OMe) = CO[C@H](c1ccccc1)[C@H](N)C(=O)O; NMeL = CN[C@@H](CC(C)C)C(=O)O
Measured attribute: Vd (L/kg)
Your answer is read as L/kg, so omit the unit and give the number.

Fill in: Vd of C#CCn1cc(C[C@@H]2NC(=O)[C@H](C(C)C)NC(=O)[C@H](CC(C)C)N(C)C(=O)[C@H](C(C)C)NC(=O)[C@H]([C@H](OC)c3ccccc3)NC(=O)[C@H](C)NC(=O)[C@H](C[C@@H](C)CO)N(C)C2=O)c2ccccc21 [Compound 5] (cyclo(A[Phe(βR-OMe)]V[NMeL]V[X1][NMeLeu(5-OH,4R)])) is ___
3.5

---

Entries and their pKd values follow.
# Target entity: ClpC1 NTD protein (M. tuberculosis) (Mycobacterium tuberculosis, UniProt P9WPC9)
# Experiment: biochemical
# Format: binding
# Measurement context: SPR (Supplementary Table 1); read-out: KD ClpC1-NTD Mean ± SD
*1 amine or outer side, *2 acyl side, *3 side chain or, on linkers, in order; H or OH if unused. Where a SMILES comes first, the peptide text is derived from it. [ ]: non-standard residue; d: D form. Trp(1-(1,1-Me2-allyl)) = C=CC(C)(C)n1cc(C[C@H](N)C(=O)O)c2ccccc21; Ala(3R-Me,3-isobutenyl) = CC(C)=C[C@@H](C)[C@H](N)C(=O)O; X3 = C#CCOc1ccc([C@@H](OC)[C@H](N[*:1])C(=O)[*:2])cc1; X5 = C=CCn1cc(C[C@@H](C(=O)[*:2])N(C)[*:1])c2ccccc21; X4 = C=CCO[C@H](c1ccccc1)[C@H](N[*:1])C(=O)[*:2]; X7 = C=CCn1cc(C[C@H](N[*:1])C(=O)[*:2])c2ccccc21; NMeLeu(5-OH,4R) = CN[C@@H](C[C@@H](C)CO)C(=O)O; Phe(βR-OMe) = CO[C@H](c1ccccc1)[C@H](N)C(=O)O; Trp(1-Me) = Cn1cc(C[C@H](N)C(=O)O)c2ccccc21; NMeL = CN[C@@H](CC(C)C)C(=O)O
As a rule, pKd stands for the negative log10 of the concentration, concentration in M.

Use these answered entries as a reference point.
| Molecule | pKd |
| --- | --- |
| C=CCO[C@H](c1ccccc1)[C@@H]1NC(=O)[C@H](C)NC(=O)[C@H](C[C@@H](C)CO)N(C)C(=O)[C@H](Cc2cn(C)c3ccccc23)NC(=O)[C@H](C(C)C)NC(=O)[C@H](CC(C)C)N(C)C(=O)[C@H](C(C)C)NC1=O [Compound 14] (cyclo(A[X4]V[NMeL]V[Trp(1-Me)][NMeLeu(5-OH,4R)])) | 8.00 |
| CO[C@H](c1ccccc1)[C@@H]1NC(=O)[C@H](C)NC(=O)[C@H](C[C@@H](C)CO)N(C)C(=O)[C@H](Cc2cn(Cc3cn(CCOCCOCCOCCn4cc(Cn5cc(C[C@@H]6NC(=O)[C@H](C(C)C)NC(=O)[C@H](CC(C)C)N(C)C(=O)[C@H](C(C)C)NC(=O)[C@H]([C@H](OC)c7ccccc7)NC(=O)[C@H](C)NC(=O)[C@H](C[C@@H](C)CO)N(C)C6=O)c6ccccc65)nn4)nn3)c3ccccc23)NC(=O)[C@H](C(C)C)NC(=O)[C@H](CC(C)C)N(C)C(=O)[C@H](C(C)C)NC1=O | 9.34 |
| C=CCn1cc(C[C@H]2C(=O)N(C)[C@@H](C[C@@H](C)CO)C(=O)N[C@@H](C)C(=O)N[C@@H]([C@H](OC)c3ccccc3)C(=O)N[C@@H](C(C)C)C(=O)N(C)[C@@H](CC(C)C)C(=O)N[C@@H](C(C)C)C(=O)N2C)c2ccccc21 [SI-60] (cyclo(A[Phe(βR-OMe)]V[NMeL]V[X5][NMeLeu(5-OH,4R)])) | 8.10 |

Item C#CCOc1ccc([C@@H](OC)[C@@H]2NC(=O)[C@H](C)NC(=O)[C@H](C[C@@H](C)CO)N(C)C(=O)[C@H](Cc3cn(C)c4ccccc34)NC(=O)[C@H](C(C)C)NC(=O)[C@H](CC(C)C)N(C)C(=O)[C@H](C(C)C)NC2=O)cc1 [SI-38] (cyclo(A[X3]V[NMeL]V[Trp(1-Me)][NMeLeu(5-OH,4R)])) has what recorded pKd?
8.25

Using the record for C=CC(C)(C)n1cc(C[C@@H]2NC(=O)[C@H]([C@H](C)C=C(C)C)NC(=O)[C@H](CC(C)C)N(C)C(=O)[C@H](C(C)C)NC(=O)[C@H]([C@H](OC)c3ccccc3)NC(=O)[C@H](C)NC(=O)[C@H](C[C@@H](C)CO)N(C)C2=O)c2ccccc21 [dCymC] (cyclo([Trp(1-(1,1-Me2-allyl))][NMeLeu(5-OH,4R)]A[Phe(βR-OMe)]V[NMeL][Ala(3R-Me,3-isobutenyl)])) , report its pKd.
8.96

# lookup: pKd of C=CCn1cc(C[C@@H]2NC(=O)[C@H](C(C)C)NC(=O)[C@H](CC(C)C)N(C)C(=O)[C@H](C(C)C)NC(=O)[C@H]([C@H](OC)c3ccccc3)NC(=O)[C@H](C)NC(=O)[C@H](C[C@@H](C)CO)N(C)C2=O)c2ccccc21 [Compound 13] (cyclo(A[Phe(βR-OMe)]V[NMeL]V[X7][NMeLeu(5-OH,4R)]))
8.44
